- System: SK-OV-3
- runDescription: NCI tumour cell line growth inhibition, 48 h
Active and inactive are the calls of the source. Rule as the data show it: active = GI50 up to about 1.1 µM and inactive = higher.
The entries below are paired with their reported GI50.

Known GI50 results, listed for orientation:
CC(=O)Nc1ccc(-c2nnc(SCC(=O)Nc3ccc(Cl)cc3)o2)cc1; 16.4 µM (inactive)
COc1ccc(NS(=O)(=O)c2ccc3ncn(NS(=O)(=O)c4ccc(I)cc4)c(=O)c3c2)cc1; > 100 µM (inactive)

The molecule identified as CN(C)/N=C(/c1nc2ccc([N+](=O)[O-])cc2nc1O)C(O)c1ccco1 (stereo not given) registered its GI50 at > 100 µM (inactive)

Record Nc1ccc(C(=O)Nc2ccccc2N)cc1 [DINALINE] . Reported GI50: > 100 µM (inactive)

Please fill in: GI50 reported for "COc1cccc(/C=C2\S/C(=N/Nc3nc(C)c(C)s3)NC2=O)c1O" = > 100 µM (inactive)

====

- Test system: TK-10
- runDescription: NCI tumour cell line growth inhibition, 48 h
Activity calls are given as the source filed them. No stated cut-off is given here; in the data, active = GI50 up to about 1.1 µM and inactive = higher.
The categories you may choose from are y (active), n (inactive)

O=c1c2nn3c(=O)n(-c4ccccc4)c(=O)c3nn2c(=O)n1-c1ccccc1; n
CCN(CC)c1nc(N(C)C)c2cc(OC)ccc2n1; n

Hi team, can someone confirm the assay call for "CCOC(=O)Cc1ccc2c(c1O)C(=O)c1c(ccc(CC(=O)OCC)c1O)C2=O" ? n

// outcome(item) with item = "Cc1nc2c(n1CCN(C)C)C(=O)c1ccccc1C2=O" n

Can you look up the reported call for "CS(=O)(=O)O.[Ag]" for me? n

Any idea what this test logged for NC(=O)/C(=N\NC(=O)c1cc2ccccc2cc1O)C1C(=O)N(c2ccccc2)N=C1N (stereo unspecified) ? n

Query: recorded result category for "O=C(/C=N/c1ccccc1S)c1ccco1" in this test n

Hi, sorry to bother you, what did the test record for "Cc1ccc(S(=O)(=O)N/N=C/c2oc(-c3ccncc3)c(-c3ccncc3)c2[N+](=O)[O-])cc1" ? n

Answer briefly: the call reported for "COc1ccc2c(c1O)-c1c(OC)c(OC)cc3c1[C@H](C2)[N+](C)(C)CC3" in this assay. n

State the result this test recorded for "O=C(COc1ccc(OCC(=O)N2C(=O)CS/C2=N\c2ccccc2)cc1)N1C(=O)CS/C1=N\c1ccccc1" . n

Please state the recorded outcome for this compound: "CC(=O)[C@H]1CC[C@H]2[C@@H]3CCC4=CC(=O)CC[C@]4(C)[C@H]3CC[C@]12C" n

Record lookup: outcome of this test for "CC(=O)/C=C1\Nc2ccc([N+](=O)[O-])cc2N\C1=C/C(C)=O" ? n

Please let me know the test result on file for "COc1cc(-c2cn(S(=O)(=O)c3ccc(C)cc3)c3ccccc23)nc(-c2cn(S(=O)(=O)c3ccc(C)cc3)c3ccccc23)n1" . n

Which outcome was entered for the compound "CN(CCc1ccccn1)C(=S)N/N=C/c1ccccn1" in this test? y

Called result for "c1ccc2c(CN3CCC(C4CCN(Cc5cccc6ccccc56)CC4)CC3)cccc2c1" n

Could you please tell me the result logged for "Cc1ccc(/N=N/c2c(O)c(C(=O)O)cc3ccccc23)cc1C" in this assay? n

Could you please tell me the result logged for "CN(C)c1ccc(/N=N/c2ccccn2)cc1" in this assay? n

====

- Test system: NCI-H460
- runDescription: NCI tumour cell line growth inhibition, 48 h
Calls of active or inactive are those of the source. Cut-off read from the data, not from the text of the source: active = GI50 up to about 1.1 µM and inactive = higher.
Hi there, use one of these labels in your reply, thanks! active, inactive

Please review the entries below; each comes with its answer.
CN(C)CCCN1C(=S)N(CCCN(C)C)c2c3ccccc3nc3c([N+](=O)[O-])ccc1c23; inactive
CC(=O)N(C)C(C(=O)N1CC(C)CC1C(=O)N(C)C1C(=O)NC(CC(C)C)C(=O)N2CC(C)CC2C(=O)NC(CC(C)C)C(=O)N(C)C(C(C)C)C(=O)N2CCCC2C(=O)N(C)C(CC(C)C)C(=O)NCC(=O)OC1C)C(C)C (stereo not drawn); inactive
O=[N+]([O-])c1cccc2nc3ccccc3c(NCCCn3ccnc3[N+](=O)[O-])c12; active
C=CC1(C)CCC2C(=CCC3C(C)(COC4OC(C(=O)O)C(O)C(O)C4O)C(O)CCC23C)C1.C=CC1(C)CCC2C(=CCC3C2(C)CC(O)C(O)C3(C)COC2OC(C(=O)O)C(O)C(O)C2O)C1 (stereo not drawn); inactive

// param item: CC(C)C(Cl)CC/C(CBr)=C(\Cl)CCl (stereo not drawn) ; yields the recorded call inactive

Assay outcome for "Cc1ccc(/N=N/c2c(O)c(C(=O)O)cc3ccccc23)cc1C" : what was it? inactive

Hi, do you know how O=P1(NCCCl)OCCC(OO)N1CCCl (stereo not drawn) came out in this test? inactive

Called result for C#C[C@]1(O)CCC2C3CCc4cc(Oc5nc(F)nc(-c6c7cc8ccccc8cc7c7n6CCS7)n5)ccc4C3CCC21C (stereo partly drawn) inactive

====

Reported GI50 is given for each of the following molecules.
- Tested on: OVCAR-8
- runDescription: NCI tumour cell line growth inhibition, 48 h
Activity calls are given as the source filed them. Rule as the data show it: active = GI50 up to about 1.1 µM and inactive = higher.

Cc1cc(C)nc(NC(=O)COc2ccc(Cl)cc2)c1; > 100 µM (inactive)

Turning now to a further molecule:
For the molecule "Cc1c(C(=O)O)n2cnnc2c2ccccc12" , the measured GI50 on OVCAR-8 was > 100 µM (inactive)

====

- Tested on: ACHN
- runDescription: NCI tumour cell line growth inhibition, 48 h
Activity calls are given as the source filed them. No stated cut-off is given here; in the data, active = GI50 up to about 1.1 µM and inactive = higher.
Pick from active, inactive when you respond.

COC(=O)[C@@H]1C[C@@]23CCCN4CC[C@@]5(c6cccc(OC)c6N(C=O)[C@]15CC2)[C@@H]43; inactive
O=C1/C(=C\c2ccc(O)cc2)CCC/C1=C/c1ccc(Cl)c(Cl)c1; inactive
O/N=C(\CC(O)(C(F)(F)F)C(F)(F)F)c1cccc(Cl)c1; inactive
Cc1ccnc2sc3ccccc3c(=O)c12; inactive
CCOC(=O)Cn1nnc2cc(Nc3nc4ccccc4nc3C(=O)OCC)ccc21; inactive
C=CCN(Cc1ccncc1)C(=O)C(O)(c1ccccc1)c1ccccc1; inactive
C/C(=N\Nc1nc2ccccc2[nH]1)c1ncccn1; active
COc1cc2nc3n(c(=O)c2cc1OC)-c1ccc([N+](=O)[O-])cc1C3=O; inactive
CN1C(OCc2ccccc2)c2c(ccc3c2OCO3)C2C=Cc3cc4c(cc3C21)OCO4 (stereo not given); inactive

Here is the next item to consider.
Recorded call for "CN1C(=O)N(C)C2(CCN(CCCCCCF)CC2)C1=O" ? inactive

====

- System: XF498
- runDescription: NCI tumour cell line growth inhibition, 48 h
Activity calls are given as the source filed them. Rule as the data show it: active = GI50 up to about 1.1 µM and inactive = higher.
measurementKind: GI50

Would you please look over these solved cases?
COc1cc2c3c(c1OC)/C(=N/OS(=O)(=O)c1ccc(C)cc1)CC3N(S(=O)(=O)c1ccc(C)cc1)CC2 (stereo unspecified); > 100 µM (inactive)
CCOC(=O)N1CCc2cc(OC)c(OC)cc2/C1=C/c1ccc(OC)c(OC)c1; 30 µM (inactive)
CNS(=O)(=O)NNS(=O)(=O)c1ccccc1; > 100 µM (inactive)
CN(C)C=[N+]=[N-]; > 100 µM (inactive)
C=C(CCCCC)CN1CCCC1[C@@](C)(O)CC(=O)OCC (stereo partly specified); > 76.6 µM (inactive)

Form field, GI50 with XF498, item COc1cccc(NC(=O)CC(=O)N2N=C(N3c4ccccc4Sc4ccccc43)CC2c2ccccc2)c1 (stereo unspecified) : > 100 µM (inactive)

====

- Tested on: T47D
- runDescription: NCI tumour cell line growth inhibition, 48 h
Active and inactive are the calls of the source. Rule as the data show it: active = GI50 up to about 1.1 µM and inactive = higher.
Classes to choose from: active, inactive

COC(=O)CNC(=O)/C=C/[C@H](O[Si](C)(C)C(C)(C)C)[C@H](/C=C/C(=O)NCC(=O)OC)O[Si](C)(C)C(C)(C)C; inactive
CN1C(=O)N(C)C2(CCN(CCCCCCF)CC2)C1=O; inactive
Brc1ccc2c(c1)C1=C(CO2)Cc2ccccc2O1; inactive
O=C(Nc1ccc(-c2cn3ccccc3n2)cc1)c1cc(Br)ccc1O; inactive
COC(=O)C1C(O)C(C)C(=O)C(C)/C=C\C=C(C)C(=O)Nc2c(C)c(OC(C)=O)c3c(c2O)C(=O)C(C)=C2OCOC(=C23)C(C)=CC(C)(O)C(O)C(C)C1O (centres undefined); inactive

Fill in: this test's call for "CN(CCc1ccccn1)C(=S)N/N=C/c1ccccn1" is ___ active

Called result for O=C1CSC2(CC(/C=C/c3ccccc3O)=NN2c2cccc(S(=O)(=O)O)c2)N1c1nc2ccccc2s1 (centres undefined) inactive

Which outcome was assigned to "CCOC(=O)c1nc2ccccc2nc1NCc1cc(OC)c(OC)c(OC)c1" in this test? inactive

Write down the call the test reported for this compound. Item: "CNC1(C(=O)O)CC1" inactive

====

Measured GI50, listed per entry for reference.
- Test system: IGROV-1
- runDescription: NCI tumour cell line growth inhibition, 48 h
The source made the active and inactive calls. Rule as the data show it: active = GI50 up to about 1.1 µM and inactive = higher.

O=C1c2c(ccc3c2CCCC3)CC12Cc1ccc3c(c1C2=O)CCCC3; > 100 µM (inactive)
O=C(O)CNS(=O)(=O)c1ccc(NC(=O)c2cccc([N+](=O)[O-])c2)cc1; > 100 µM (inactive)
O=C1C/C(=N/c2ccc(Cl)cc2)C(c2ccccc2)N1c1ccccc1 (stereo unspecified); 18.2 µM (inactive)
CN(C)CCCc1c2ccccc2nc2ccc(Cl)cc12; 16.4 µM (inactive)
COC(=O)c1c(C)cccc1CC1Cc2c(C)cccc2C1=O (stereo unspecified); 33.3 µM (inactive)

Please find the next molecule below.
GET /value?item= "CN(C)CCONC(=O)C12CC3CC(CC(C3)C1)C2" &field=GI50 returns > 100 µM (inactive)
